Where these numbers come from: ChEMBL document CHEMBL1681770

- Organism: Homo sapiens
- Test Summary: Selectivity ratio of IC50 for human MAG to IC50 for human CD22
Provide the reported Ratio IC50 of each item.

## Input Look up and state reported Ratio IC50 for `O=C(CO)N[C@H]1[C@H]([C@H](O)[C@H](O)CNCc2ccc(-c3ccc(O)cc3)cc2)O[C@@](OCc2ccc(-c3ccccc3)cc2)(C(=O)O)C[C@@H]1O`
## Output 7.4

## Input Look up and state reported Ratio IC50 for `COc1ccc(O[C@@H]2O[C@H](CO[C@]3(C(=O)O)C[C@H](O)[C@@H](NC(=O)CO)[C@H]([C@H](O)[C@H](O)CNCc4ccc(-c5ccc(O)cc5)cc4)O3)[C@H](O)[C@H](O)[C@H]2O)cc1`
## Output 11.4

## Input Look up and state reported Ratio IC50 for `O=C(Cc1ccc(-c2ccc(O)cc2)cc1)NC[C@@H](O)[C@@H](O)[C@@H]1O[C@@](OCc2ccc(-c3ccccc3)cc2)(C(=O)O)C[C@H](O)[C@H]1NC(=O)CO`
## Output 432

## Input Look up and state reported Ratio IC50 for `COc1ccc(O[C@@H]2O[C@H](CO[C@]3(C(=O)O)C[C@H](O)[C@@H](NC(=O)CO)[C@H]([C@H](O)[C@H](O)CNC(=O)Cc4ccc(-c5ccc(O)cc5)cc4)O3)[C@H](O)[C@H](O)[C@H]2O)cc1`
## Output 41.5

## Input Look up and state reported Ratio IC50 for `O=C(Cc1ccc(-c2ccc(O)cc2)cc1)NC[C@@H](O)[C@@H](O)[C@@H]1O[C@@](OCc2ccccc2)(C(=O)O)C[C@H](O)[C@H]1NC(=O)CO`
## Output 712

## Input Look up and state reported Ratio IC50 for `O=C(CO)N[C@H]1[C@H]([C@H](O)[C@H](O)CNCc2ccc(-c3ccc(O)cc3)cc2)O[C@@](OCc2ccccc2)(C(=O)O)C[C@@H]1O`
## Output 3.4
